This section presents molecules with their documented TGI values.
system: SK-MEL-28 melanoma; experiment: NCI tumour cell line growth inhibition, 48 h

Look over these answered cases.
molecule	TGI
Nc1nc(Cl)c2ncn(Cc3ccccc3CCl)c2n1	20.7 µM
O=C(C#Cc1c[nH]c(=O)[nH]c1=O)c1ccccc1	22.9 µM
CCCCCN(CCCCC)C(=O)[C@@H](CCC(=O)OCc1ccccc1)NC(=O)c1cc2ccccc2[nH]1	> 100 µM
N#Cc1c(N2CCOCC2)ncn(-c2ccccc2)c1=O	> 100 µM
O=C1OC(c2ccc([N+](=O)[O-])cc2)=N/C1=C\c1ccc(O)cc1	> 100 µM
CSc1s[s+]c(SC)c1[O-]	34.2 µM
Cc1cccc(C)c1NC(=S)/N=C/C1=C(O)c2ccccc2C1=O	> 100 µM
O=C(Nc1cc(C(F)(F)F)ccc1Cl)C(=O)C(C(=O)c1ccc2ccccc2c1)C1OC(=O)c2ccccc21 (stereo not drawn)	13.1 µM

Q: Reported TGI for CC[C@H](CCCCC1CC[C@@H]2CC(=O)C[C@H]12)OC (stereo partly drawn) : what is it?
Ans: > 100 µM

Q: Reported TGI for CC(=O)OCCn1c(Cc2ccc([N+](=O)[O-])cc2)nn(C(C)=O)c1=O : what is it?
Ans: > 100 µM

Q: Reported TGI for C(/COc1cccnc1)=N\NC1=NCCN1 : what is it?
Ans: > 100 µM

Q: Reported TGI for COCCN1C2=CCCCC2=Nc2c(N)nc(N)nc21 : what is it?
Ans: > 100 µM

====

This section presents compounds with their documented TGI values.
test system: NCI-H460 lung; test: NCI tumour cell line growth inhibition, 48 h

Look over these answered cases.
compound	recorded.measurement
Nc1nc(N)c(-c2ccccc2)c(C(=O)Nc2ccc(Cl)c(Cl)c2)n1	> 100 µM
CC(=O)OCCn1c(Cc2ccc([N+](=O)[O-])cc2)nn(C(C)=O)c1=O	> 100 µM
O=C1c2cccc3c(N4CCN(c5ccc6c7c(cccc57)C(=O)N(CCN5CCNCC5)C6=O)CC4)ccc(c23)C(=O)N1CCN1CCNCC1	80 µM
Cc1ccc(NC2=C(Cl)C(=O)c3nc(C)ccc3C2=O)cc1	4.57 µM

Q: Reported TGI for OC[C@H]1CC(c2nn[nH]n2)[C@H](O)[C@@H]1O (some centres undefined) : what is it?
Ans: > 100 µM

Q: Reported TGI for CCC12C=CCN3CC[C@]4(C(=C(C(=O)OC)[C@@H]1Nc1ccn(C5OC(COC(C)=O)C(OC(C)=O)C5OC(C)=O)c(=O)n1)Nc1ccccc14)C32 (some centres undefined) : what is it?
Ans: 8.62 µM

Q: Reported TGI for CN(C)CCCC1(c2ccc(F)cc2)OCc2cc(-c3ccc4cc[nH]c4c3)ccc21 (centres undefined) : what is it?
Ans: 3.49 µM

Q: Reported TGI for C=CCC1(O)c2cccc(O)c2C(=O)c2c(O)cccc21 : what is it?
Ans: > 100 µM

Q: Reported TGI for Cc1cc(S(=O)(=O)Nc2nc(N)n(C)n2)c(S)cc1Cl : what is it?
Ans: > 10 µM

====

system: EKVX NSCLC; assay: NCI tumour cell line growth inhibition, 48 h
reported.metric: TGI

Look over these answered cases.
compound	system.under.test	TGI
Cc1ccc(S(=O)(=O)n2ccn3c(=O)cc(C)nc23)cc1	EKVX NSCLC	> 10 µM
NC1=C(c2nc(-c3cc4ccccc4oc3=O)cs2)C(c2ccco2)c2c(c3ccccc3oc2=O)O1 (configuration not stated)	EKVX NSCLC	> 150 µg/mL
CC(NC1CCC[C@H]1O)c1ccccc1 (mixture of isomers)	EKVX NSCLC	> 100 µM
O=[N+]([O-])c1cc(Cl)ccc1S(=O)(=O)c1ccccc1	EKVX NSCLC	> 100 µM
CCOC(=O)c1sc2nc(SC)nc(Nc3ccc(OC)c(OC)c3)c2c1N	EKVX NSCLC	> 100 µM
COc1ccc(OC)c(C2CCc3cnc4nc(N)nc(N)c4c3C2)c1 (configuration not stated)	EKVX NSCLC	> 100 µM
CC[C@H](CCCCC1CC[C@@H]2CC(=O)C[C@H]12)OC (some centres not stated)	EKVX NSCLC	> 100 µM
O=C1C=C(Br)C(=O)C(Br)=C1	EKVX NSCLC	> 100 µM

We next turn to a different compound, shown below.
Q: Record CC(C)C1OCC(CO)CO1 (configuration not stated) : what is its TGI with EKVX NSCLC?
Ans: > 100 µM
